system: SNB-75; assay: NCI tumour cell line growth inhibition, 48 h
The source made the active and inactive calls. No stated cut-off is given here; in the data, active = GI50 up to about 1.1 µM and inactive = higher.
Possible outcomes: true (1) (active), false (0) (inactive)

COMPOUND: COc1cccc(-c2cc(O)c3cc(OC)ccc3n2)c1
QUALITATIVE_LABEL: true (1)
//
COMPOUND: COc1ccc(Cc2c(-c3ccc(C)cc3)n[nH]c(=O)c2C2C(=O)N(c3ccccc3)N=C2c2ccccc2)cc1 (stereo not given)
QUALITATIVE_LABEL: false (0)
//
COMPOUND: CCCCc1ccc(Nc2nc(Cl)c3c(ncn3C3CC(Oc4ccc(C)cc4)C(COc4ccc(C)cc4)O3)n2)cc1 (stereo not given)
QUALITATIVE_LABEL: false (0)
//
COMPOUND: Nc1nc(Nc2ccccc2)c2[nH]cnc2n1
QUALITATIVE_LABEL: false (0)
//
COMPOUND: N#CC(C#N)/N=N/c1ccc(-c2nc3ccccc3[nH]2)cc1
QUALITATIVE_LABEL: false (0)
//
COMPOUND: CC1=NN2C=Nc3c(c(-c4ccc(Cl)cc4)cn3-c3ccc(C)cc3)C2N1 (stereo not given)
QUALITATIVE_LABEL: false (0)
//
COMPOUND: Cc1cc(S(=O)(=O)Nc2nc(Nc3ccccc3)n[nH]2)c(SSc2cc(Cl)c(C)cc2S(=O)(=O)Nc2nc(Nc3ccccc3)n[nH]2)cc1Cl
QUALITATIVE_LABEL: false (0)
//
COMPOUND: COc1ccc(OC)c(SC(CC(=O)c2ccccc2)c2ccccc2)c1 (stereo not given)
QUALITATIVE_LABEL: false (0)
//
COMPOUND: Oc1c(CNCCCN2CCCC2)cc(Cl)c2cccnc12
QUALITATIVE_LABEL: false (0)
//
COMPOUND: CN(O)C(=O)Cc1ccc(OCc2cccc(Cl)c2)cc1
QUALITATIVE_LABEL: false (0)

----------
system: NCI-H226; experiment: NCI tumour cell line growth inhibition, 48 h
Calls of active or inactive are those of the source. Rule as the data show it: active = GI50 up to about 1.1 µM and inactive = higher.
MEASURED_PARAMETER: GI50

MOLECULE: Cc1cc(C)nc(NS(=O)(=O)c2ccc(Nc3c4ccccc4nc4c(C(=O)N5CCN(CCOS(C)(=O)=O)CC5)cccc34)cc2)n1
TESTED_ON: NCI-H226
MEASURED_PARAMETER: GI50
RESULT: > 100 µM (inactive)
//
MOLECULE: Cc1ccc(S(=O)(=O)N/N=C2\CCC3(O)CC2(C)CCC2C3CC2(C)C)cc1 (stereo not given)
TESTED_ON: NCI-H226
MEASURED_PARAMETER: GI50
RESULT: 27.4 µM (inactive)
//
MOLECULE: COc1ccc(/C=C/C(=O)c2sc(-n3nc(-c4ccccc4)cc3-c3ccccc3)nc2C)cc1
TESTED_ON: NCI-H226
MEASURED_PARAMETER: GI50
RESULT: > 10 µM (inactive)
//
MOLECULE: Cc1c(CCCl)c(Cl)n2c(nc3ccccc32)c1C#N
TESTED_ON: NCI-H226
MEASURED_PARAMETER: GI50
RESULT: 1.38 µM (inactive)
//
MOLECULE: Cc1ccc(/N=C2N=C(Cl)/C(=C\c3ccccc3)N\2)cc1
TESTED_ON: NCI-H226
MEASURED_PARAMETER: GI50
RESULT: > 100 µM (inactive)
